Recorded values, source patent US20120165319A1.

- testSystem: ICE (Homo sapiens, UniProt P29466)
- Sequence (P29466 120-297 limits assumed): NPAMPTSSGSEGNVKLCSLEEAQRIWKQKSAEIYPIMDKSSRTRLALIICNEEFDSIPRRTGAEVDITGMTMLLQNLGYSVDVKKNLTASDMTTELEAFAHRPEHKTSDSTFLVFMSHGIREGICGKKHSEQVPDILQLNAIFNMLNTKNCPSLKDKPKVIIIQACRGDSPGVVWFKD
- Sequence (P29466 317-404 limits assumed): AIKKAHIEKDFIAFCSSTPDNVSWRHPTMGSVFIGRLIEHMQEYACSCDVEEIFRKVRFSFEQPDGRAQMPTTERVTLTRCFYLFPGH
- assayExplanation: Enzyme assay with UV-visible substrate (visible ICE assay, Succinyl-Tyr-Val-Ala-Asp-pNitroanilide)
- Assay type: biochemical
- cond: Table 5
Each entry below carries its reported Ki.
Give just the number in nM; leave the unit off.

COc1ccc(C(=O)N[C@H]2CCC(=O)N3CCC[C@@H](C(=O)N[C@H](C=O)CC(=O)O)N3C2=O)cc1 :: 4.5

--- query ---
stdin: # input compound: "O=C[C@H](CC(=O)O)NC(=O)[C@@H]1CCCN2C(=O)CC[C@H](NC(=O)c3ccc(Cl)cc3)C(=O)N12" ; wanted: its Ki
stdout: 12
